# key: entry, value: pIC50
- system tested: mushroom tyrosinase (Agaricus bisporus, UniProt C7FF04)
- Construct: purchased Sigma-Aldrich (St. Louis, MO, USA)
- Sequence (C7FF04 1-392 limits assumed): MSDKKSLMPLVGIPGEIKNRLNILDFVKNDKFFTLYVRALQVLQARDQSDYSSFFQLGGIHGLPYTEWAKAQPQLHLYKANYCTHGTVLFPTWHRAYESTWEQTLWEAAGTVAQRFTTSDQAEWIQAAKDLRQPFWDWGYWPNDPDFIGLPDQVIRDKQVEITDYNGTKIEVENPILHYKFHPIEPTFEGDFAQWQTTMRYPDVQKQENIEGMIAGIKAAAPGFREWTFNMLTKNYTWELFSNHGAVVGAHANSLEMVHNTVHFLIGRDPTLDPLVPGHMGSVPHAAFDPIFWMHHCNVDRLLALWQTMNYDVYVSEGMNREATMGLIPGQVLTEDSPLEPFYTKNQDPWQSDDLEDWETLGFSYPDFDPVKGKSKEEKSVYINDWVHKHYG
- run description: Mushroom tyrosinase activity inhibition assay (L-tyrosine or L-dopa as substrate)
- Type: biochemical
- run parameters: mushroom tyrosinase, substrate L-dopa, 15 min, 37 °C; mean ± SEM of triplicates; read-out: IC50 Values, L-Dopa
pIC50: −log10 of the molar value.

Here is how some compounds turned out for pIC50.
Oc1ccc(-c2nc3ccc(Cl)cc3o2)c(O)c1	4.69
Cc1ccc2oc(-c3ccc(O)c(O)c3)nc2c1	< 3.70
COc1ccc(-c2nc3cc(C)ccc3o2)cc1O	< 3.70
Cc1ccc2nc(-c3ccc(O)c(O)c3)oc2c1	3.73
COc1ccc(-c2nc3cc(C)ccc3o2)c(OC)c1	< 3.70
Cc1ccc2nc(-c3ccc(O)cc3)oc2c1 [Compound 1, 4-(6-Methylbenzo[d]oxazol-2-yl)phenol]	< 3.70

Pending compound:
query: Field request: pIC50 | item: Cc1ccc2nc(-c3ccc(O)cc3O)oc2c1
result: 4.78
